B1: CPXM2 (parent)
chain: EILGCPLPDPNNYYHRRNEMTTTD

Variants of: B1
assay: protein stability index of a GFP-peptide fusion (GPS, HEK-293T) (PSI 1-6); higher = more stable;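 also: lentivirally expressed fusions sorted by FACS into six bins by GFP to DsRed ratio, PSI derived from sequencing read proportions per bin multiplied by bin number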
condition: c terminus: a fixed tail appended
measured-attribute: protein stability index

Example cases with answers are listed next.
R16D    3.98
N11W    2.29
P10A    3.45
H15F    3.33
N18D    4.23

Looking for the measured protein stability index of "C5F" , can you help? 3.65

Looking for the measured protein stability index of "L3E" , can you help? 4.39

Looking for the measured protein stability index of "T21A" , can you help? 3.6

Looking for the measured protein stability index of "D24I" , can you help? 1.82

Looking for the measured protein stability index of "P6Q" , can you help? 2.92
